# System tested: CAS1 (Sordaria macrospora)
# Construct: gene SMAC_03420; recombinant, obtained in-house
# Test protocol: biochemical
# Parameters: stopped-flow CO2 hydration assay, phenol red 557 nm, pH 8.3, 15 min preincubation; KI by Cheng-Prusoff
# Experimental conditions: read-out: KI^a (nM) / CAS1^c / β
Test readout: Ki (nM)

Please review the entries below; each comes with its answer.
NS(=O)(=O)c1nnc(NS(=O)(=O)c2ccccc2)s1 [BZA, benzolamide]: 2110
NS(=O)(=O)Cc1noc2ccccc12: 1820
NS(=O)(=O)c1ccc(S(=O)(=O)Nc2cccc3c(Cl)c[nH]c23)cc1: 4240
NS(=O)(=O)c1cc(Cl)c(Cl)c(S(N)(=O)=O)c1: 1220
NS(=O)(=O)c1cc2c(cc1Cl)NCNS2(=O)=O: 3350

1. O=C1NS(=O)(=O)c2ccccc21
2. Nc1nnc(S(N)(=O)=O)s1 [compound 13, 5-amino-1,3,4-thiadiazole-2-sulfonamide]
Parameter check: reported Ki is higher for which label, 1 or 2 ? # reply format: chosen label
2

====

# System tested: CAS1 (Sordaria macrospora, UniProt F7VW42)
# Construct: gene SMAC_03420; recombinant, obtained in-house
# Sequence (F7VW42 1-234): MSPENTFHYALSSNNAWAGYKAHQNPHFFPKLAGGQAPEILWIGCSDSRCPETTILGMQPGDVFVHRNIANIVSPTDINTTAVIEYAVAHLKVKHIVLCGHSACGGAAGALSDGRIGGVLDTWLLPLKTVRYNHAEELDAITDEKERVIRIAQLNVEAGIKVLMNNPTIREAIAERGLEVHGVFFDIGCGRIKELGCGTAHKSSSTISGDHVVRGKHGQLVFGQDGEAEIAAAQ
# Test protocol: stopped-flow CO2 hydration assay
# Type: biochemical
# Experimental conditions: pH 8.3, 20 mM TRIS, 20 mM Na2SO4; CO2 1.7-17 mM; 15 min preincubation at room temperature; read-out: KI^a (nM) / CAS1^c / β
Test readout: Ki (nM)
Response body: numeric value in nM, unit text excluded.

What Ki appears in the records for this compound with CAS1 (Sordaria macrospora, UniProt F7VW42)? `Nc1ccc(S(N)(=O)=O)cc1Br`
580

====

# System tested: CAS2 (Sordaria macrospora, UniProt C1L336)
# Construct: recombinant, obtained in-house
# Sequence (C1L336 54-284): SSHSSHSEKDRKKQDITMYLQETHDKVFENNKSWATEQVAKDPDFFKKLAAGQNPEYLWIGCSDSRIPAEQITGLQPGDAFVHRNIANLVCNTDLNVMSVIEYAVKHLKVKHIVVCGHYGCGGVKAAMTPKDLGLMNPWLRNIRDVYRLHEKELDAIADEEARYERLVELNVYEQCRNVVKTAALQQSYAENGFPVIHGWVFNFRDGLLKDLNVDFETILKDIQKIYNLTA
# Test protocol: stopped-flow CO2 hydration assay
# Assay type: biochemical
# Experimental conditions: read-out: KI^a (nM) / CAS2^c / β
Test readout: Ki (nM)

Please review the entries below; each comes with its answer.
Nc1nnc(S(N)(=O)=O)s1 [compound 13, 5-amino-1,3,4-thiadiazole-2-sulfonamide]: 48.1
NS(=O)(=O)c1ccc(CO)cc1 [compound 16, 4-hydroxymethyl-benzenesulfonamide]: 92.5
NS(=O)(=O)c1nnc(NS(=O)(=O)c2ccccc2)s1 [BZA, benzolamide]: 410
Cc1ccc(-c2cc(C(F)(F)F)nn2-c2ccc(S(N)(=O)=O)cc2)cc1: 857
NS(=O)(=O)c1ccc(S(=O)(=O)Nc2cccc3c(Cl)c[nH]c23)cc1: 216

P. NS(=O)(=O)c1ccc(N2CCCCS2(=O)=O)cc1
Q. CCN[C@H]1CN(CCCOC)S(=O)(=O)c2sc(S(N)(=O)=O)cc21 [BRZ, brinzolamide]
Parameter check: reported Ki is higher for which label, P or Q ? # reply format: chosen label
Q

====

# System tested: CAS1 (Sordaria macrospora)
# Construct: gene SMAC_03420; recombinant, obtained in-house
# Test protocol: biochemical
# Parameters: stopped-flow CO2 hydration assay, phenol red 557 nm, pH 8.3, 15 min preincubation; KI by Cheng-Prusoff
# Experimental conditions: read-out: KI^a (nM) / CAS1^c / β
Test readout: Ki (nM)

NS(=O)(=O)c1ccc(N2CCCCS2(=O)=O)cc1: 3210
NS(=O)(=O)c1ccc(CO)cc1 [compound 16, 4-hydroxymethyl-benzenesulfonamide]: 4520

A. Cc1onc(-c2ccccc2)c1-c1ccc(S(N)(=O)=O)cc1
B. Cc1ccc(-c2cc(C(F)(F)F)nn2-c2ccc(S(N)(=O)=O)cc2)cc1
C. CCN1CCCC1CNC(=O)c1cc(S(N)(=O)=O)ccc1OC (centres unmarked) [SLP, sulpiride]
Rank items: key Ki, increasing. Answer by listing the labels in the requested order.
C, B, A
(C: 1720 nM, B: 2510 nM, A: 4430 nM)

====

# System tested: CAS1 (Sordaria macrospora)
# Construct: gene SMAC_03420; recombinant, obtained in-house
# Test protocol: stopped-flow CO2 hydration assay
# Format: biochemical
# Experimental conditions: read-out: KI^a (nM) / CAS1^c / β
Test readout: Ki (nM)

Please review the entries below; each comes with its answer.
CCN[C@H]1CN(CCCOC)S(=O)(=O)c2sc(S(N)(=O)=O)cc21 [BRZ, brinzolamide]: 451
CC1(C)O[C@@H]2[C@@H](CO[C@@]3(COS(N)(=O)=O)OC(C)(C)O[C@@H]23)O1 [TPM, topiramate]: 414
Cc1ccc(S(N)(=O)=O)cc1 [compound 4, tosylamide]: 47.1

P. Nc1ccc(S(N)(=O)=O)cc1Cl [compound 8, 3-chlorosulfanilamide]
Q. Nc1ccc(S(N)(=O)=O)cc1F [compound 7, 3-fluorosulfanilamide]
R. CC(=O)N=c1sc(S(N)(=O)=O)nn1C [MZA, methazolamide]
Hey, quick one: sort these by Ki, largest value first please. Answer by listing the labels in the requested order.
R, P, Q
